- Species: Mus musculus
- assay info: Tested for potentiation of yohimbine toxicity in aggregated mice(Y)
- Type: functional

compound | ED50
CC(N)c1nnc2n1-c1ccc(Cl)cc1C(c1ccccc1)=NC2 (stereo unspecified) | > 50 mg/kg
C#CCN(C)Cc1nnc2n1-c1ccc(Cl)cc1C(c1ccccc1Cl)=NC2 | > 50 mg/kg
CCN(CC)CCc1nnc2n1-c1ccc(Cl)cc1C(c1ccccc1)=NC2 | > 50 mg/kg
CN(C)CCCc1nnc2n1-c1ccc(Cl)cc1C(c1ccccc1)=NC2 | > 100 mg/kg
NCCc1nnc2n1-c1ccc(Br)cc1C(c1ccccc1)=NC2 | 20 mg/kg
CNCc1nnc2n1-c1ccc(Cl)cc1C(c1ccccc1)=NC2 | > 50 mg/kg
